Can you tell me pIC50 for the items I'm about to list?
tested on: MEF normal mouse embryonic fibroblast; assay: MTT cytotoxicity assay, MEF; assay type: cell-based; conditions: n = 3
One number for each entry, as −log10 of the molar value.

Solved cases (2 shown):
• Cc1[nH]c(=NN=C2CCC(=NN=c3[nH]c(C)c(N=Nc4ccccc4)s3)CC2)sc1N=Nc1ccccc1 = 5.15
• Cc1ccc(N=Nc2sc(=NN=C3CCC(=NN=c4[nH]c(C)c(N=Nc5ccc(C)cc5)s4)CC3)[nH]c2C)cc1 = 5.63

Please look at the following molecule next.
## Task Query (molecule): O=C1CSC(=NN=C2CCC(=NN=C3NC(=O)CS3)CC2)N1 ; field requested: pIC50
## Result 5.98

----------
property.label: melting point

Solved cases (8 shown):
• c1ccc2sc(-c3csc(=NN=C4CCC(=NN=c5[nH]c(-c6nc7ccccc7s6)cs5)CC4)[nH]3)nc2c1 [13a] = > 300 °C
• Cc1[nH]c(=NN=C2CCC(=NN=c3[nH]c(C)c(N=Nc4ccc([N+](=O)[O-])cc4)s3)CC2)sc1N=Nc1ccc([N+](=O)[O-])cc1 = > 300 °C
• c1ccc2oc(-c3csc(=NN=C4CCC(=NN=c5[nH]c(-c6cc7ccccc7o6)cs5)CC4)[nH]3)cc2c1 [13b] = 269 to 270 °C
• Cc1ccc(C=C2SC(=NN=C3CCC(=NN=C4NC(=O)C(=Cc5ccc(C)cc5)S4)CC3)NC2=O)cc1 [14b] = 269 to 270 °C
• CC(=O)c1sc(=NN=C2CCC(=NN=c3[nH]c(C)c(C(C)=O)s3)CC2)[nH]c1C = 280 to 281 °C
• O=C1NC(=NN=C2CCC(=NN=C3NC(=O)C(=Cc4ccc(Br)cc4)S3)CC2)SC1=Cc1ccc(Br)cc1 [14d] = 290 to 291 °C
• O=c1oc2ccccc2cc1-c1csc(=NN=C2CCC(=NN=c3[nH]c(-c4cc5ccccc5oc4=O)cs3)CC2)[nH]1 [13c] = 241 to 242 °C
• O=C1NC(=NN=C2CCC(=NN=C3NC(=O)C(=Cc4ccc(Cl)cc4)S3)CC2)SC1=Cc1ccc(Cl)cc1 [14c] = > 300 °C

Each of the following entries comes with a recorded value; kindly state melting point for each.
1. O=C1NC(=NN=C2CCC(=NN=C3NC(=O)C(=Cc4ccccc4)S3)CC2)SC1=Cc1ccccc1 [14a]
2. Clc1ccc(-c2csc(=NN=C3CCC(=NN=c4[nH]c(-c5ccc(Cl)cc5)cs4)CC3)[nH]2)cc1 [13d]

## Result
["> 300 °C", "230 to 231 °C"]

----------
tested on: A2780 ovarian cancer cells; assay: MTT cytotoxicity assay, A2780; type: cell-based, human; settings: Homo sapiens, A2780, 72 h, read-out: IC50 A2780 (Ovarian)
pIC50: −log10 of the molar value.
property.label: pIC50

## Task Query (molecule): Cc1[nH]c(=NN=C2CCC(=NN=c3[nH]c(C)c(N=Nc4ccc([N+](=O)[O-])cc4)s3)CC2)sc1N=Nc1ccc([N+](=O)[O-])cc1 ; field requested: pIC50
## Result < 3.70

----------
tested on: A2780 ovarian cancer cells; test: MTT cytotoxicity assay, A2780; format: cell-based, human; conditions: Homo sapiens, A2780; MTT, 72 h, n = 3; read-out: IC50 A2780 (Ovarian)
Label criterion met when IC50 < 70 µM; otherwise criterion not met.

- O=c1oc2ccccc2cc1-c1csc(=NN=C2CCC(=NN=c3[nH]c(-c4cc5ccccc5oc4=O)cs3)CC2)[nH]1 [13c]: criterion met
- Cc1ccc(N=Nc2sc(=NN=C3CCC(=NN=c4[nH]c(C)c(N=Nc5ccc(C)cc5)s4)CC3)[nH]c2C)cc1: criterion not met
- c1ccc2sc(-c3csc(=NN=C4CCC(=NN=c5[nH]c(-c6nc7ccccc7s6)cs5)CC4)[nH]3)nc2c1 [13a]: criterion met
- Cc1[nH]c(=NN=C2CCC(=NN=c3[nH]c(C)c(N=Nc4ccccc4Cl)s3)CC2)sc1N=Nc1ccccc1Cl: criterion met
- O=C1CSC(=NN=C2CCC(=NN=C3NC(=O)CS3)CC2)N1: criterion not met

Now consider the entry below.
## Task Threshold test, IC50 < 70 µM: Cc1[nH]c(=NN=C2CCC(=NN=c3[nH]c(C)c(N=Nc4ccccc4)s3)CC2)sc1N=Nc1ccccc1
## Result criterion not met

----------
system: Hela cervical cancer cells; test: MTT cytotoxicity assay, Hela; type: cell-based; settings: Homo sapiens, 72 h, read-out: IC50 Hela (Cervical)
pIC50: −log10 of the molar value.
property.label: pIC50

## Task Query (compound): Cc1[nH]c(=NN=C2CCC(=NN=c3[nH]c(C)c(N=Nc4ccc([N+](=O)[O-])cc4)s3)CC2)sc1N=Nc1ccc([N+](=O)[O-])cc1 ; field requested: pIC50
## Result < 3.70

----------
system: MCF-7 breast cancer cells; test: MTT cytotoxicity assay, MCF-7; assay type: cell-based, human; conditions: Homo sapiens, MCF7; MTT, 72 h, n = 3; read-out: IC50 MCF-7 (Breast)
Can you tell me IC50 for the items I'm about to list?

Each of the following entries comes with a recorded value; kindly state IC50 for each.
1. O=C1CSC(=NN=C2CCC(=NN=C3NC(=O)CS3)CC2)N1
2. Clc1ccc(-c2csc(=NN=C3CCC(=NN=c4[nH]c(-c5ccc(Cl)cc5)cs4)CC3)[nH]2)cc1 [13d]
3. Cc1ccc(N=Nc2sc(=NN=C3CCC(=NN=c4[nH]c(C)c(N=Nc5ccc(C)cc5)s4)CC3)[nH]c2C)cc1
4. c1ccc2sc(-c3csc(=NN=C4CCC(=NN=c5[nH]c(-c6nc7ccccc7s6)cs5)CC4)[nH]3)nc2c1 [13a]
5. Cc1ccccc1N=Nc1sc(=NN=C2CCC(=NN=c3[nH]c(C)c(N=Nc4ccccc4C)s3)CC2)[nH]c1C
6. Cc1[nH]c(=NN=C2CCC(=NN=c3[nH]c(C)c(N=Nc4ccccc4)s3)CC2)sc1N=Nc1ccccc1
7. O=c1oc2ccccc2cc1-c1csc(=NN=C2CCC(=NN=c3[nH]c(-c4cc5ccccc5oc4=O)cs3)CC2)[nH]1 [13c]
8. Cc1[nH]c(=NN=C2CCC(=NN=c3[nH]c(C)c(N=Nc4ccccc4Cl)s3)CC2)sc1N=Nc1ccccc1Cl

## Result
> 200 µM
> 200 µM
> 200 µM
> 200 µM
< 25 µM
> 200 µM
178 µM
> 200 µM

----------
Can you tell me pIC50 for the items I'm about to list?
tested on: Hela cervical cancer cells; assay: MTT cytotoxicity assay, Hela; type: cell-based; details: Homo sapiens, MTT, 72 h, n = 3, read-out: IC50 Hela (Cervical)
pIC50: −log10 of the molar value.

Solved cases (2 shown):
• Cc1ccccc1N=Nc1sc(=NN=C2CCC(=NN=c3[nH]c(C)c(N=Nc4ccccc4C)s3)CC2)[nH]c1C = < 3.70
• Cc1[nH]c(=NN=C2CCC(=NN=c3[nH]c(C)c(N=Nc4ccc(Cl)cc4)s3)CC2)sc1N=Nc1ccc(Cl)cc1 = > 4.60

Each of the following entries comes with a recorded value; kindly state pIC50 for each.
1. O=C1CSC(=NN=C2CCC(=NN=C3NC(=O)CS3)CC2)N1
2. Clc1ccc(-c2csc(=NN=C3CCC(=NN=c4[nH]c(-c5ccc(Cl)cc5)cs4)CC3)[nH]2)cc1 [13d]
3. Cc1[nH]c(=NN=C2CCC(=NN=c3[nH]c(C)c(N=Nc4ccccc4)s3)CC2)sc1N=Nc1ccccc1
4. Cc1ccc(N=Nc2sc(=NN=C3CCC(=NN=c4[nH]c(C)c(N=Nc5ccc(C)cc5)s4)CC3)[nH]c2C)cc1
5. Cc1[nH]c(=NN=C2CCC(=NN=c3[nH]c(C)c(N=Nc4ccccc4Cl)s3)CC2)sc1N=Nc1ccccc1Cl
6. c1ccc2sc(-c3csc(=NN=C4CCC(=NN=c5[nH]c(-c6nc7ccccc7s6)cs5)CC4)[nH]3)nc2c1 [13a]

## Result
[3.95, "< 3.70", "< 3.70", "< 3.70", "< 3.70", "< 3.70"]

## Task Query (compound): O=c1oc2ccccc2cc1-c1csc(=NN=C2CCC(=NN=c3[nH]c(-c4cc5ccccc5oc4=O)cs3)CC2)[nH]1 [13c] ; field requested: pIC50
## Result < 3.70

----------
Can you tell me IC50 for the items I'm about to list?
test system: KF-28 ovarian cancer cells; experiment: MTT cytotoxicity assay, KF-28; type: cell-based, human; conditions: Homo sapiens; MTT, 72 h, n = 3; read-out: IC50 KF-28 (Ovarian)

* Cc1[nH]c(=NN=C2CCC(=NN=c3[nH]c(C)c(N=Nc4ccccc4Cl)s3)CC2)sc1N=Nc1ccccc1Cl [5f] | < 25 µM
* Cc1[nH]c(=NN=C2CCC(=NN=c3[nH]c(C)c(N=Nc4ccccc4)s3)CC2)sc1N=Nc1ccccc1 [5a] | < 25 µM
* Cc1ccc(N=Nc2sc(=NN=C3CCC(=NN=c4[nH]c(C)c(N=Nc5ccc(C)cc5)s4)CC3)[nH]c2C)cc1 [5b] | < 25 µM
* c1ccc2sc(-c3csc(=NN=C4CCC(=NN=c5[nH]c(-c6nc7ccccc7s6)cs5)CC4)[nH]3)nc2c1 [13a] | > 200 µM

Each of the following entries comes with a recorded value; kindly state IC50 for each.
1. O=C1CSC(=NN=C2CCC(=NN=C3NC(=O)CS3)CC2)N1 [compound 9]
2. Cc1ccccc1N=Nc1sc(=NN=C2CCC(=NN=c3[nH]c(C)c(N=Nc4ccccc4C)s3)CC2)[nH]c1C [5e]
3. O=c1oc2ccccc2cc1-c1csc(=NN=C2CCC(=NN=c3[nH]c(-c4cc5ccccc5oc4=O)cs3)CC2)[nH]1 [13c]

## Result
1: 86.5 µM; 2: > 200 µM; 3: 85.7 µM

Source: paper PMC8397418
